Test system: 435261-313-R-J1-PDC tumor spheroid viability
procedure text: Anticancer human tumor 435261-313-R-J1-PDC patient-derived colon adenocarcinoma cell line growth inhibition [PI3K]; active means viability on the fitted dose curve at most 10% of control; inactive means the rest
cond: second compound 1 µM; first compound 1 µM; spheroids with HUVEC and MSC
I would appreciate it if you answered using one of these outcomes: active, inactive

Sample answers from the record:
molecule	qualitative label
CC1(C)CCC(Nc2ncc(C(F)(F)F)c(-c3c[nH]c4c(P(C)(C)=O)c(C#N)ccc34)n2)CN1 (stereo unspecified) + CC(Nc1ccc2c(c1)OCCn1cc(N3C(=O)OCC3C(F)F)nc1-2)C(N)=O	inactive
CC(Cn1ccc(-c2ccc(C#N)c(Cl)c2)n1)NC(=O)c1cc(C(C)O)[nH]n1 (stereo unspecified) + CC(Nc1ncnc2nc[nH]c12)c1cc2cccc(Cl)c2c(=O)n1-c1ccccc1	inactive
C=CC(=O)N1CCN(c2nc(=O)n(-c3c(C)ccnc3C(C)C)c3nc(-c4c(O)cccc4F)c(F)cc23)C(C)C1 (stereo unspecified) + COc1c(OCCCN2CCOCC2)ccc2c3n(c(=NC(=O)c4cnc(N)nc4)nc12)CCN3	active
C#Cc1c(F)ccc2cc(O)cc(-c3ncc4c(N5CC6CCC(C5)N6)nc(OCC56CCCN5CC(F)C6)nc4c3F)c12 (stereo unspecified) + Cc1nc(NC(=O)N2CCCC2C(N)=O)sc1-c1ccnc(C(C)(C)C(F)(F)F)c1	inactive

// query Any idea what this test logged for C#Cc1c(F)ccc2cc(O)cc(-c3ncc4c(N5CC6CCC(C5)N6)nc(OCC56CCCN5CC(F)C6)nc4c3F)c12 (stereo unspecified) + CC(Nc1ccc2c(c1)OCCn1cc(N3C(=O)OCC3C(F)F)nc1-2)C(N)=O ?
// result inactive

====

Reported viability, T/C values for the following compounds.
System: 435261-313-R-J1-PDC tumor spheroid viability
procedure text: Anticancer human tumor 435261-313-R-J1-PDC cell line growth inhibition [PI3K];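 further: spheroids exposed to compounds for 7 days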
cond: second compound 3.16 µM; first compound 0.00316 µM; active compounds read low; spheroids with HUVEC and MSC
Supply the numeric figure in %, leaving out any unit text.

Worked set:
compound	viability, T/C (%)
CC(=O)c1c(C)c2cnc(Nc3ccc(N4CCNCC4)cn3)nc2n(C2CCCC2)c1=O + CC(Nc1ncnc2nc[nH]c12)c1cc2cccc(Cl)c2c(=O)n1-c1ccccc1	40.8
CC(=O)c1c(C)c2cnc(Nc3ccc(N4CCNCC4)cn3)nc2n(C2CCCC2)c1=O + Cc1nc(NC(=O)N2CCCC2C(N)=O)sc1-c1ccnc(C(C)(C)C(F)(F)F)c1	13.9
CCN1CCN(Cc2ccc(Nc3ncc(F)c(-c4cc(F)c5nc(C)n(C(C)C)c5c4)n3)nc2)CC1 + CC(Nc1ncnc2nc[nH]c12)c1cc2cccc(Cl)c2c(=O)n1-c1ccccc1	92.2
CC(C)n1nc(-c2ccc3oc(N)nc3c2)c2c(N)ncnc21 + Cc1nc(NC(=O)N2CCCC2C(N)=O)sc1-c1ccnc(C(C)(C)C(F)(F)F)c1	21.7
Cn1ncnc1[C@H]1c2n[nH]c(=O)c3cc(F)cc(c23)N[C@@H]1c1ccc(F)cc1 + CC(Nc1ncnc2nc[nH]c12)c1cc2cccc(Cl)c2c(=O)n1-c1ccccc1	75.8

From here, focus on the item given below.
// query Recorded viability, T/C of Cn1ncnc1[C@H]1c2n[nH]c(=O)c3cc(F)cc(c23)N[C@@H]1c1ccc(F)cc1 + Cc1nc(NC(=O)N2CCCC2C(N)=O)sc1-c1ccnc(C(C)(C)C(F)(F)F)c1 , please.
// result 17.5
